// provenance: ChEMBL document CHEMBL1135077

Consider the following molecules; for each one, report its pIC50.
target: Glucagon receptor (Homo sapiens)
Sequence (P47871 whole entry): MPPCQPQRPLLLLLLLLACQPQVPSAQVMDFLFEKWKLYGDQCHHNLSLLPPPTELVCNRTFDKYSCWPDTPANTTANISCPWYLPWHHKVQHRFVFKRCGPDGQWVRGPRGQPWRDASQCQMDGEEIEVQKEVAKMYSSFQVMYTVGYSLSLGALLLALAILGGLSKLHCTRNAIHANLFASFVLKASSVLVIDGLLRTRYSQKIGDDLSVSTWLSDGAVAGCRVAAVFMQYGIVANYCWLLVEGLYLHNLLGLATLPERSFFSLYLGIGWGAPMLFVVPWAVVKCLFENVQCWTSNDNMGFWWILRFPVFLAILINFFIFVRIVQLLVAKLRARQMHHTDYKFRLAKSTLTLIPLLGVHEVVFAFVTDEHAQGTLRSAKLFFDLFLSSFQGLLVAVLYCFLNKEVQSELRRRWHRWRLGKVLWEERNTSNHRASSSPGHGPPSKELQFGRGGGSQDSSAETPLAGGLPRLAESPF
The value called pIC50 is obtained by taking minus log10 of the concentration in mol/L.

pIC50 for CC(C)c1ccc(Cn2cc(/C=N/NC(=O)c3ccc(O)c(Cl)c3)c3ccccc32)cc1 is 6.41

pIC50 for O=C(N/N=C/c1ccc(OCC2CCCCO2)c2ccccc12)c1ccc(O)c(Cl)c1 (stereo not drawn) is 6.85

pIC50 for COc1cc(/C=N/NC(=O)c2ccc(O)c(F)c2F)cc(OC)c1OCc1ccc(C(C)C)cc1 is 7.32

====

target: Glucagon receptor (Homo sapiens)
pIC50: −log10 of the molar value.
Parameter threshold = 6. Response is fulfilled when pIC50 meets or exceeds it, else not fulfilled.

Reported pIC50 reaches at least 6 for COc1cc(/C(C)=N/NC(=O)c2ccc(O)c(Cl)c2)cc(OC)c1OCc1ccc(C(C)C)cc1 ?
not fulfilled

Reported pIC50 reaches at least 6 for COc1cc(/C=N/NC(=O)c2ccc(O)c(Cl)c2)cc(C(=O)O)c1OCc1ccc(C(C)C)cc1 ?
not fulfilled

Reported pIC50 reaches at least 6 for Cc1cc(/C=N/NC(=O)c2ccc(O)c(Cl)c2)cc(C)c1OCc1ccc(C(C)C)cc1 ?
fulfilled

Reported pIC50 reaches at least 6 for COc1cc(CCNC(=O)c2ccc(O)c(Cl)c2)cc(OC)c1OCc1ccc(C(C)C)cc1 ?
not fulfilled

Reported pIC50 reaches at least 6 for CC(C)c1ccc(COc2ccc(/C=N/NC(=O)c3ccc(O)c(Cl)c3)c3ccccc23)cc1 ?
fulfilled

Reported pIC50 reaches at least 6 for CC(C)(C)c1nc(COc2ccc(/C=N/NC(=O)c3ccc(O)c(Cl)c3)c3ccccc23)no1 ?
fulfilled

====

IC50, Glucagon receptor (Homo sapiens): measured values
All answers are understood in nM, so give the number only.

IC50 for COC(=O)C(Oc1c(OC)cc(/C=N/NC(=O)c2ccc(O)c(Cl)c2)cc1OC)c1ccccc1 (stereo not drawn) is 690

IC50 for COc1cc(/C=N/NC(=O)c2ccc(O)c(N)c2)cc(OC)c1OCc1ccc(C(C)C)cc1 is 940

IC50 for NC(=O)COc1ccc(/C=N/NC(=O)c2ccc(O)c(Cl)c2)c2ccccc12 is 1200
